Below: a set of entries, each annotated with reported Dmax.
molecular target: BRM (Homo sapiens, UniProt P51531); construct: In-Cell Western Screen of BRM Degradation in SW1573 Cells; endogenous in cells; host or cells: SW1573; assay: In-cell Western screen of BRM degradation in SW1573 cells (Dmax and DC50); format: cell-based; details: BRM degradation, SW1573 cells; when tested at the top concentration of between 0.3 and 10 μM; read-out: Dmax (%) (% degraded)
Sequence (P51531 whole entry): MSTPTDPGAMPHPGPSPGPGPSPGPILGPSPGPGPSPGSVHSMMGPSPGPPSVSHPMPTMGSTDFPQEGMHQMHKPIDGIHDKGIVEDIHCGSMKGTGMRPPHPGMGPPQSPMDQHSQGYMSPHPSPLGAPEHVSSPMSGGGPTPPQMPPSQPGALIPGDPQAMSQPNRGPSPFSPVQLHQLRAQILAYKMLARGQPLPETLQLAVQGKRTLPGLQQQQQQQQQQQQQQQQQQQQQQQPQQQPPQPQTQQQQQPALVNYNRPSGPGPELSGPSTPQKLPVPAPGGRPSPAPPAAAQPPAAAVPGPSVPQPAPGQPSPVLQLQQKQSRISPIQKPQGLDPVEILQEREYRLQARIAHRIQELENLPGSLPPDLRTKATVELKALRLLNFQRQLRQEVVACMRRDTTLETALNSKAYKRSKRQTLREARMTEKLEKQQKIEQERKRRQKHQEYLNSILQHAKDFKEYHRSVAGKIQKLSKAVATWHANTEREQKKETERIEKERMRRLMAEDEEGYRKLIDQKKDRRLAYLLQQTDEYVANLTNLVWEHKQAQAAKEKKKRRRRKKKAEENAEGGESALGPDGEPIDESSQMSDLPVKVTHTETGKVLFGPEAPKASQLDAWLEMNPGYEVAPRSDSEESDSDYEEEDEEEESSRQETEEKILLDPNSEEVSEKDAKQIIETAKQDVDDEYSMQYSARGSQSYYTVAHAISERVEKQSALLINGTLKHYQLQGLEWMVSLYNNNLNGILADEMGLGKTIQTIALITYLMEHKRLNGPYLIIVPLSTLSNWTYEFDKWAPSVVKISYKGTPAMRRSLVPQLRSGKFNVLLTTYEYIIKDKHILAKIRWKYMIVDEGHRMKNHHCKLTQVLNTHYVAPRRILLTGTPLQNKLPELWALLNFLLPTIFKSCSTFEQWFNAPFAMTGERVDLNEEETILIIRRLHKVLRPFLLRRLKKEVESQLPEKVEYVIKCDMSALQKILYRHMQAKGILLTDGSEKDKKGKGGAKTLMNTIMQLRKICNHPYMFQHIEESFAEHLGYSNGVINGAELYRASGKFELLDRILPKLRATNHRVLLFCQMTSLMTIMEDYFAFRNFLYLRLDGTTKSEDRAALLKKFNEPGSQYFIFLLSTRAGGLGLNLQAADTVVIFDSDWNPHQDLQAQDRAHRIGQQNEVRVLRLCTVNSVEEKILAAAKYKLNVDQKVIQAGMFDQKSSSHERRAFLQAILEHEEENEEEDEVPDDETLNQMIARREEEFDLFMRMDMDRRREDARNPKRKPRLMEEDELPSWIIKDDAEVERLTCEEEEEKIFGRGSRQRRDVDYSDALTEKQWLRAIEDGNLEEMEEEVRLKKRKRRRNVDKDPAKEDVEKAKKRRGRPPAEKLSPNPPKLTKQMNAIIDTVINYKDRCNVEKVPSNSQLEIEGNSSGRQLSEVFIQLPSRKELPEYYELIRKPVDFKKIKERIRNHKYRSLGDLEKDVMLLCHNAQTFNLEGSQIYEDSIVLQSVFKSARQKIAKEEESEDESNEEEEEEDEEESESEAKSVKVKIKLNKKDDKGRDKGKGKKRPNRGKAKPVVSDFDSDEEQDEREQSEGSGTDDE

Solved entries:
compound: Cc1ncsc1-c1ccc(CNC(=O)[C@@H]2C[C@@H](O)CN2C(=O)[C@@H](c2cc(OCCOCCOCCOCCn3cc(-c4cc(-c5ccccc5O)nnc4N)cn3)no2)C(C)C)cc1 [compound 17]
Dmax: > 75%
//
compound: Cc1ncsc1-c1ccc(CNC(=O)[C@@H]2C[C@@H](O)CN2C(=O)[C@H](c2cc(OCCOCCOCCOCCOCCn3cc(-c4cc(-c5ccccc5O)nnc4N)cn3)no2)C(C)C)cc1 [compound 18]
Dmax: 50 to 75%
//
compound: Cc1ncsc1-c1ccc(CNC(=O)[C@@H]2C[C@@H](O)CN2C(=O)[C@@H](c2cc(OCCN3CCN(CCCc4cc(N5C6CCC5CN(c5cc(-c7ccccc7O)nnc5N)C6)ccn4)CC3)no2)C(C)C)cc1 [compound 44]
Dmax: > 75%
//
compound: Cc1ncsc1-c1ccc([C@H](C)NC(=O)[C@@H]2C[C@@H](O)CN2C(=O)[C@@H](c2cc(OCCOCCOCCCCN3CCC4(CCN(c5cc(-c6ccccc6O)nnc5N)CC4)C3)no2)C(C)C)cc1 [compound 74]
Dmax: > 75%

Just so you know, measured Dmax for Cc1ncsc1-c1ccc(CNC(=O)[C@@H]2C[C@@H](O)CN2C(=O)[C@@H](NC(=O)COCCOCCOCCOCCOCCOCCOCCn2cc(-c3cc(-c4ccccc4O)nnc3N)cn2)C(C)(C)C)cc1 [compound 5] came out at > 75%

====

biological target: BRM (Homo sapiens, UniProt P51531); construct: In-Cell Western Screen of BRM Degradation in SW1573 Cells; endogenous in cells; host or cells: SW1573; assay: In-cell Western screen of BRM degradation in SW1573 cells (Dmax and DC50); assay type: cell-based; settings: SW1573; % degraded; when tested at the top concentration of between 0.3 and 10 μM; read-out: BRM Dmax (%)
Below: a set of entries, each annotated with reported Dmax.

Solved entries:
testSmiles: Cc1ncsc1-c1ccc([C@@H](NC(=O)[C@@H]2C[C@@H](O)CN2C(=O)[C@@H](c2cc(OCCN3CCC(O[C@H]4C[C@H](Oc5cc(N6C7CCC6CN(c6cc(-c8ccccc8O)nnc6N)C7)ccn5)C4)CC3)no2)C(C)C)C(=O)N(C)C2CCC2)cc1
Dmax: > 75%
--
testSmiles: Cc1ncsc1-c1ccc([C@H](C)NC(=O)[C@@H]2C[C@@H](O)CN2C(=O)[C@@H](c2cc(N3CCN(CC4CCN(C[C@H]5C[C@H](Oc6cc(N7C8CCC7CN(c7cc(-c9ccccc9O)nnc7N)C8)ccn6)C5)CC4)CC3)no2)C(C)C)cn1
Dmax: > 75%

Tested on BRM (Homo sapiens, UniProt P51531), the item Cc1ncsc1-c1ccc([C@H](C)NC(=O)[C@@H]2C[C@@H](O)CN2C(=O)[C@@H](c2cc(OCC[C@H]3CCN(C[C@H]4C[C@H](Oc5cc(N6C7CCC6CN(c6cc(-c8ccccc8O)nnc6N)C7)ccn5)C4)[C@H](C)C3)no2)C(C)C)cc1 showed Dmax equal to > 75%

Tested on BRM (Homo sapiens, UniProt P51531), the item Cc1ncsc1-c1ccc([C@H](C)NC(=O)[C@@H]2C[C@@H](O)CN2C(=O)[C@@H](c2cc(OCCN3CCC(O[C@H]4C[C@H](C#C[C@@H](C)n5cc(-c6cc(-c7ccccc7O)nnc6N)cn5)C4)CC3)no2)C(C)C)cc1 showed Dmax equal to > 75%

====

Below: a set of entries, each annotated with reported DC50.
molecular target: BRM (Homo sapiens, UniProt P51531); construct: In-Cell Western Screen of BRM Degradation in SW1573 Cells; endogenous in cells; host or cells: SW1573; test: In-cell Western screen of BRM degradation in SW1573 cells (Dmax and DC50); type: cell-based; details: BRM degradation, SW1573 cells; read-out: DC50

Just so you know, measured DC50 for Cc1ncsc1-c1ccc([C@H](CCC#N)NC(=O)[C@@H]2C[C@@H](O)CN2C(=O)[C@@H](c2cc(N3CCC(CN4CCC(O[C@H]5C[C@H](Oc6cc(N7C8CCC7CN(c7cc(-c9ccccc9O)nnc7N)C8)ccn6)C5)CC4)CC3)no2)C(C)C)cc1 [compound 672] came out at < 2.5 nM

Just so you know, measured DC50 for Cc1ncsc1-c1ccc([C@H](C)NC(=O)[C@@H]2C[C@@H](O)CN2C(=O)[C@@H](NC(=O)Cc2ccc(N3CCN(CCOCCCc4cc(N5C6CCC5CN(c5cc(-c7ccccc7O)nnc5N)C6)ccn4)CC3)nc2)C(C)(C)C)cc1 [compound 50] came out at 10 to 30 nM

Just so you know, measured DC50 for Cc1ncoc1-c1ccc([C@H](C)NC(=O)[C@@H]2C[C@@H](O)CN2C(=O)[C@@H](c2cc(OCCN3CCN(CCOc4cc(N5C6CCC5CN(c5cc(-c7ccccc7O)nnc5N)C6)ccn4)CC3)no2)C(C)C)cc1 [compound 300] came out at < 2.5 nM

Just so you know, measured DC50 for COCC[C@H](NC(=O)[C@@H]1C[C@@H](O)CN1C(=O)[C@@H](c1cc(N2CCC(CN3CCC(O[C@H]4C[C@H](Oc5cc(N6C7CCC6CN(c6cc(-c8ccccc8O)nnc6N)C7)ccn5)C4)CC3)CC2)no1)C(C)C)c1ccc(-c2scnc2C)cc1 [compound 670] came out at < 2.5 nM

====

Below: a set of entries, each annotated with reported DC50.
target: BRM (Homo sapiens); construct: In-Cell Western Screen of BRM Degradation in SW1573 Cells; endogenous in cells; host or cells: SW1573; assay: In-cell Western screen of BRM degradation in SW1573 cells (Dmax and DC50); assay type: cell-based; conditions: BRM degradation, SW1573 cells; read-out: DC50

compound: Cc1ncsc1-c1ccc([C@H](C)NC(=O)[C@@H]2C[C@@H](O)CN2C(=O)[C@H](c2cc(OCCN3CCN(CCOc4cc(N5C6CCC5CN(c5cc(-c7ccccc7O)nnc5N)C6)ccn4)CC3)no2)C(C)C)cn1 [compound 160]
system: BRM (Homo sapiens)
DC50: > 30 nM

Just so you know, measured DC50 for CC(C)[C@@H](C(=O)N1C[C@H](O)C[C@H]1C(=O)N[C@@H](C)c1ccc(-c2scnc2CO)cc1)c1cc(OCCN2CCC(O[C@H]3C[C@H](Oc4cc(N5C6CCC5CN(c5cc(-c7ccccc7O)nnc5N)C6)ccn4)C3)CC2)no1 [compound 211] came out at < 2.5 nM

Just so you know, measured DC50 for Cc1ncsc1-c1ccc([C@@H](NC(=O)[C@@H]2C[C@@H](O)CN2C(=O)[C@@H](c2cc(OCCN3CCN(CCOc4cc(N5C6CCC5CN(c5cc(-c7ccccc7O)nnc5N)C6)ccn4)CC3)no2)C(C)C)C(F)F)cc1 [compound 102] came out at < 2.5 nM

Just so you know, measured DC50 for Cc1ncsc1-c1ccc([C@H](CO)NC(=O)[C@@H]2C[C@@H](O)CN2C(=O)[C@H](c2cc(OCCN3CCN(CCOc4cc(N5C6CCC5CN(c5cc(-c7ccccc7O)nnc5N)C6)ccn4)CC3)no2)C(C)C)cc1 [compound 158] came out at > 30 nM

Just so you know, measured DC50 for Cc1nccn1-c1ccc([C@H](C)NC(=O)[C@@H]2C[C@@H](O)CN2C(=O)[C@@H](c2cc(OCCN3CCC(O[C@H]4C[C@H](Oc5cc(N6C7CCC6CN(c6cc(-c8ccccc8O)nnc6N)C7)ccn5)C4)CC3)no2)C(C)C)cc1 [compound 178] came out at < 2.5 nM

Just so you know, measured DC50 for Cc1ncsc1-c1ccc([C@H](C)NC(=O)[C@@H]2C[C@@H](O)CN2C(=O)[C@H](c2cc(OCCOCCOCCCCN3CCC4(CC3)CCN(c3cc(-c5ccccc5O)nnc3N)CC4)no2)C(C)C)cc1 [compound 67] came out at > 30 nM

====

target: BRM (Homo sapiens, UniProt P51531); construct: In-Cell Western Screen of BRM Degradation in SW1573 Cells; endogenous in cells; host or cells: SW1573; experiment: In-cell Western screen of BRM degradation in SW1573 cells (Dmax and DC50); type: cell-based; conditions: BRM degradation, SW1573 cells; read-out: DC50
outcomeMeasure: DC50

compound: Cc1ncsc1-c1ccc([C@H](C)NC(=O)[C@@H]2C[C@@H](O)CN2C(=O)C(c2cc(N3CCC(C(C)(C)N4CCC(O[C@H]5C[C@H](Oc6cc(N7C8CCC7CN(c7cc(-c9ccccc9O)nnc7N)C8)ccn6)C5)CC4)CC3)no2)C(C)C)cc1 (some centres unmarked)
DC50: < 2.5 nM

Alright, here's another compound for you.
Just so you know, measured DC50 for Cc1ncsc1-c1ccc([C@H](C)NC(=O)[C@@H]2C[C@@H](O)CN2C(=O)[C@H](c2cc(N3CCC4(CCCN(C[C@H]5C[C@H](Oc6cc(N7C8CCC7CN(c7cc(-c9ccccc9O)nnc7N)C8)ccn6)C5)C4)CC3)no2)C(C)C)cc1 came out at > 30 nM
